assayNotes: Solubility in gastric juice or intestinal juice model fluid (precipitation method using DMSO)
Format: physicochemical
assaySetup: pH 1.2, simulated gastric fluid, kinetic from dmso stock, 1st fluid for Disintegration Test of Japanese Pharmacopoeia (pH: 1.2), room temperature, read-out: Solubility (μg/mL) 1st fluid
List of solubility at 24 h values.

INSERT INTO assay_data (chemicalstructure, result) VALUES
  ('COc1cc(OCc2ccc(C(F)(F)F)nc2)ccc1-c1[nH]c(C2CCC(F)(F)CC2)nc1Cl', '> 100 µg/mL'),
  ('COc1cc(O[C@H](C)c2ccc(C(F)(F)F)cc2)ccc1-c1cnc(-c2ccc(F)nc2)[nH]1', '< 0.3 µg/mL'),
  ('COc1cc(OCc2ccc(C(F)(F)F)cn2)ccc1-c1cn(C)c(-c2ccc(F)nc2)n1', '> 92 µg/mL');

Please find the next compound below.
Task: For `COc1cc(OCc2ccc(C(F)(F)F)cn2)ccc1-c1nc(-c2ccc(F)nc2)n(C)c1Br` , what is its reported solubility at 24 h?
Output: > 107 µg/mL

----------
propertyMeasured: melting point

Task: For `Oc1cc(OCc2ncc(C(F)(F)F)cc2F)ccc1-c1[nH]c(-c2ccc(F)nc2)nc1Cl` , what is its reported melting point?
Output: 229 to 233 °C (dec.)

----------
propertyMeasured: melting point

INSERT INTO measurements (chemicalstructure, result) VALUES
  ('COc1cc(OCc2ccc(C(F)(F)F)nc2)ccc1-c1nc(-c2ccc(Cl)nc2)n(C)c1Br', '177 to 182 °C'),
  ('COc1cc(OCc2cncc(C(F)(F)F)c2)ccc1-c1[nH]c(-c2ccc(F)nc2)nc1Br', '176 to 179 °C'),
  ('COc1cc(OCc2ncc(C(F)(F)F)cc2F)ccc1-c1[nH]c(-c2ccc(F)nc2)nc1C(F)(F)F', '181 to 182 °C');

Task: For `COc1cc(O)ccc1-c1[nH]c(-c2ccc(F)nc2)nc1Cl` , what is its reported melting point?
Output: 209 to 214 °C (dec.)

Task: For `COc1cc(OCc2ccc(C(F)(F)F)nc2)ccc1-c1[nH]c(-c2ccc(F)nc2)nc1I` , what is its reported melting point?
Output: 195 to 208 °C

----------
assayNotes: Solubility in gastric juice or intestinal juice model fluid (precipitation method using DMSO)
Format: physicochemical
assaySetup: pH 6.8, kinetic from dmso stock, 2nd fluid for Disintegration Test of Japanese Pharmacopoeia (pH: 6.8), room temperature, read-out: Solubility (μg/mL) 2nd fluid
List of log10 solubility at 24 h values.
Scale type: logarithmic (base 10). Underlying solubility at 24 h unit: µg/mL.

# annotated cases, reported log10 solubility at 24 h shown
INSERT INTO measurements (compound, propertymeasured, numericreadout) VALUES
  ('COc1cc(-c2cnc(CCC(F)(F)F)[nH]2)ccc1OCc1ncc(C(F)(F)F)cc1F [Example 391]', 'log10 solubility at 24 h', 0.85),
  ('COc1cc(OCc2ncccc2C#N)ccc1-c1cnc(C2CCC(F)(F)CC2)[nH]1 [Example 7]', 'log10 solubility at 24 h', 1.60),
  ('COc1cc(OC(C)c2ccc(C(F)(F)F)nc2)ccc1-c1[nH]c(-c2ccc(F)nc2)nc1Cl (centres unmarked) [Example 239]', 'log10 solubility at 24 h', 1.19),
  ('COc1cc(-c2c[nH]c(-c3ccc(Cl)nc3)n2)ccc1OCc1ccc(C(F)(F)F)cn1 [Example 93]', 'log10 solubility at 24 h', -0.05),
  ('COc1cc(OCc2ncc(C(F)(F)F)cc2F)ccc1-c1[nH]c(C2CC(F)(F)C2)nc1C [Example 399]', 'log10 solubility at 24 h', 0.53),
  ('COc1cc(OCc2ccc(C(F)(F)F)nc2)ccc1-c1[nH]c(C2CCC(F)(F)CC2)nc1C [Example 6]', 'log10 solubility at 24 h', 1.67),
  ('COc1cc(-c2c[nH]c(C3CCCC3)n2)ccc1OCc1ccc(C(F)(F)F)cn1 [Example 78]', 'log10 solubility at 24 h', 1.31),
  ('COc1cc(OCc2ncc(Cl)cc2F)ccc1-c1cnc(-c2ccc(Cl)nc2)[nH]1 [Example 104]', 'log10 solubility at 24 h', -0.15),
  ('COc1cc(-c2[nH]c(C3CCC(F)(F)C3)nc2Cl)ccc1OCc1ccc(C(F)(F)F)cn1 (centres unmarked) [Example 189]', 'log10 solubility at 24 h', 1.06),
  ('Fc1ccc(-c2ncc(-c3ccc(OCc4ncc(C(F)(F)F)cc4F)cc3Cl)[nH]2)cn1 [Example 360]', 'log10 solubility at 24 h', -0.22);

Task: For COc1cc(OCc2ccc(C(F)(F)F)nc2)ccc1-c1cnc(C2CC(F)(F)C2)[nH]1 [Example 4] , what is its reported log10 solubility at 24 h?
Output: -0.05

Task: For COc1cc(OCc2ncc(C(F)(F)F)cc2F)ccc1-c1[nH]c(-c2ccc(Cl)nc2)nc1Cl [Example 245] , what is its reported log10 solubility at 24 h?
Output: 1.07

Task: For COc1cc(-c2c[nH]c(-c3ccc(F)nc3)n2)ccc1OCc1ncccc1F [Example 119] , what is its reported log10 solubility at 24 h?
Output: 0.72

Task: For COc1cc(OCc2ncc(C(F)(F)F)cc2F)ccc1-c1cnc(C2CCC(F)(F)CC2)[nH]1 [Example 335] , what is its reported log10 solubility at 24 h?
Output: 0.82

Task: For COc1cc(-c2c[nH]c(-c3ccccn3)n2)ccc1OCc1ccc(C(F)(F)F)cn1 [Example 87] , what is its reported log10 solubility at 24 h?
Output: -0.15

Task: For COc1cc(OCc2ccc(C(F)(F)F)cn2)ccc1-c1c[nH]c(-c2ccc(C)nc2)n1 [Example 80] , what is its reported log10 solubility at 24 h?
Output: -0.40

Task: For COc1cc(-c2nc(-c3ccc(F)nc3)[nH]c2Cl)ccc1OCc1ncccc1F [Example 212] , what is its reported log10 solubility at 24 h?
Output: -0.30
